// provenance: patent US20240358755A1

Molecular target: T1, HLA-A*02:01 (human)
T1 construct: Peptide-receptive MHC class I monomer in the UV-ligand exchange assay
Assay: UV peptide exchange, anti-b2m ELISA; exchange yield grade
VALUE KIND: peptide exchange yield

BINDER	VALUE KIND	ASSAY RESULT
GLLGTLRVL	peptide exchange yield	≥ 75%
ILVTAWKGV	peptide exchange yield	50 to 75%
KLPFFTNFL	peptide exchange yield	≥ 75%
